- SYSTEM: GST-tagged truncated LRRK2 (Homo sapiens)
- Construct: GST-tagged truncated LRRK2 from Invitrogen (Cat # PV4874); GST; purchased Invitrogen PV4874
- ASSAY: LRRK2 Assay, Format 2 (Lantha Screen), WT
- Assay type: biochemical
- DETAILS: geometric mean of 2-4 determinations unless otherwise indicated (a: >=5; b: single determination)
Counter-ions that a name gives are not always drawn.
MEASURED ATTRIBUTE: IC50 (nM)

A selection of reference data follows.
COMPOUND: Cc1cnn(Cc2nc3cnc4ccc(C#N)cc4c3n2[C@H]2CC[C@@H](F)C2)c1 (single isomer, unassigned) [Example 94]
VALUE REPORTED: 6.33

COMPOUND: C[C@@H]1C[C@H](n2c(Cn3cc(C(F)(F)F)nn3)nc3cnc4ccc(Cl)cc4c32)CCO1 [Example 99, formate salt]
VALUE REPORTED: 5.84

COMPOUND: Cc1cc(Cc2nc3cnc4ccc(Cl)cc4c3n2[C@@H]2CCO[C@H](CC#N)C2)no1 (single isomer, unassigned; ent-1)
VALUE REPORTED: 7.68

COMPOUND: C[C@@H]1C[C@H](n2c(CC#N)nc3cnc4ccc(C#N)cc4c32)CCO1
VALUE REPORTED: 16.8

COMPOUND: CCc1nn2cc(Cc3nc4cnc5ccc(C#N)cc5c4n3[C@@H]3CCO[C@H](C)C3)nc2s1 [Example 156, formate salt]
VALUE REPORTED: 4.78

I = Cc1cc(Cc2nc3cnc4ccc(C#N)cc4c3n2[C@H]2CCCC[C@H]2O)no1 (racemic) [Example 242, formate salt]
II = CC1(C)CC(n2c(Cn3cnnn3)nc3cnc4ccc(Cl)cc4c32)CCO1 (centres unmarked) [Example 150, formate salt]
Exercise: compare I and II ; which one has the greater IC50? Indicate your choice by writing its label.
I

P = Cc1nnn(Cc2nc3cnc4ccc(Cl)cc4c3n2[C@@H]2CCO[C@H](C)C2)n1
Q = Cc1cn(Cc2nc3cnc4ccc(Br)cc4c3n2[C@@H]2CCO[C@H](C)C2)nn1
Hi there! Just curious which has the higher IC50 between P and Q . API: response body contains the label of the selected item.
P
(P: 10.4 nM, Q: 6.7 nM)

A = CCC(F)(F)Cn1c(Cc2cnccn2)nc2cnc3ccc(Cl)cc3c21
B = C[C@@H]1C[C@H](n2c(Cc3ccncn3)nc3cnc4ccc(C#N)cc4c32)CCO1
C = Cc1nn2cc(Cc3nc4cnc5ccc(C#N)cc5c4n3[C@@H]3CCO[C@H](C)C3)nc2s1 [Example 157, formate salt]
Ascending sort, IC50. Your answer should be the labels, listed in the requested order.
C, B, A

====

- SYSTEM: mutant G2019S LRRK2 (Homo sapiens, UniProt Q5S007, G2019S)
- Sequence (Q5S007 970-2527 G2019S limits assumed): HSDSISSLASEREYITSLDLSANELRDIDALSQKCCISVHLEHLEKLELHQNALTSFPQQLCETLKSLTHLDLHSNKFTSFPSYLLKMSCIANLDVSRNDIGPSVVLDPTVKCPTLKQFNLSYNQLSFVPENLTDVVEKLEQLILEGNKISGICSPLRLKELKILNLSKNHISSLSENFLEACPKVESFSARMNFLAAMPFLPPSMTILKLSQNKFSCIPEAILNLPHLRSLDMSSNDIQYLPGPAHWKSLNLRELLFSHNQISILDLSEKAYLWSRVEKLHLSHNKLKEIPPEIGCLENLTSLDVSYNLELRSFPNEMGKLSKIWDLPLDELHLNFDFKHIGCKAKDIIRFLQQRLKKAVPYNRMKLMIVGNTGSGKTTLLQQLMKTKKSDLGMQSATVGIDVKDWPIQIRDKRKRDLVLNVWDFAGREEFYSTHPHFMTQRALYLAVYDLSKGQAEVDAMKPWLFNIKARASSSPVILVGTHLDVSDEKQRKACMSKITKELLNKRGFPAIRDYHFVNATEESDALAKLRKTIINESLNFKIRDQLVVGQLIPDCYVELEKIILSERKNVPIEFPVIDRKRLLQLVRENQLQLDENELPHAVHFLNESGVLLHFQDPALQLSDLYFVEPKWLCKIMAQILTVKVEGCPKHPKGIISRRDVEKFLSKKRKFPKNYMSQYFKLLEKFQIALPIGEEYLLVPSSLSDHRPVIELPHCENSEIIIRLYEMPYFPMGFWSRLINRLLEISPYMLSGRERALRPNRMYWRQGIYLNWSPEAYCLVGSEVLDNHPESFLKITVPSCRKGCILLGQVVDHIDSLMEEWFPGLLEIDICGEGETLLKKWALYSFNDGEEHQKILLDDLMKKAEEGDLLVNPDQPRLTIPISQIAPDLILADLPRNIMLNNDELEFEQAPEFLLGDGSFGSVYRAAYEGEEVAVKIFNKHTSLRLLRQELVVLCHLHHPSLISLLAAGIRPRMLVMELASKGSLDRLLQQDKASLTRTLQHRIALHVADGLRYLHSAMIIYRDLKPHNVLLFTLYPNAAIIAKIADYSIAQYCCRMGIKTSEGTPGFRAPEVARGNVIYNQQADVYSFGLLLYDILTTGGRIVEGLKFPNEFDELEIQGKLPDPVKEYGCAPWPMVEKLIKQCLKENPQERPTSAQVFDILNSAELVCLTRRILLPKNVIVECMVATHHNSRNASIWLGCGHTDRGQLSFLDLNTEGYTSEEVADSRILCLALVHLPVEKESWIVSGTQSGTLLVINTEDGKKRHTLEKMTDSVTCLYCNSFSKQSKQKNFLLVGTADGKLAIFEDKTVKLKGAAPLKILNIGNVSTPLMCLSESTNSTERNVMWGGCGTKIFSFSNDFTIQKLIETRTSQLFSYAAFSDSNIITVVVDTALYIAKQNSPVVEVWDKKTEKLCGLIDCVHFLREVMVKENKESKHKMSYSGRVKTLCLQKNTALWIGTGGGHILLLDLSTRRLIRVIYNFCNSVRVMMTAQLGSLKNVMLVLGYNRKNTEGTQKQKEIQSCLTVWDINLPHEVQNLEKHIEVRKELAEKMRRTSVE
- ASSAY: LRRK2 Assay, Format 2 (Lantha Screen), G2019S mutant
- Type: biochemical
- Design: purchased Invitrogen PV4881
- DETAILS: geometric mean of 2-4 determinations unless otherwise indicated (a: >=5; b: single determination); read-out: LRRK2, Format 2 G2019S IC50
Where a name gives a salt, the structure may show the parent alone.
MEASURED ATTRIBUTE: IC50 (nM)

Solved cases (4 shown):
COMPOUND: Cc1cc(Cc2nc3cnc4ccc(C#N)cc4c3n2C2CCCC(F)(F)C2)no1 (stereo not shown) [Example 244, formate salt]
UNIT ABBREV: nM
IC50: 89.7
//
COMPOUND: CO[C@H]1CC[C@H](n2c(Cc3cc(C)on3)nc3cnc4ccc(C#N)cc4c32)CC1 [Example 219, formate salt]
UNIT ABBREV: nM
IC50: 126
//
COMPOUND: C[C@@H]1C[C@H](n2c(Cc3cn(C)cn3)nc3cnc4ccc(C#N)cc4c32)CCO1 [Example 235, formate salt]
UNIT ABBREV: nM
IC50: 9.43
//
COMPOUND: Cc1ccn(Cc2nc3cnc4ccc(C#N)cc4c3n2[C@@H]2CCO[C@H](C)C2)n1 [Example 233, formate salt]
UNIT ABBREV: nM
IC50: 11.9

P = Cc1cc(Cc2nc3cnc4ccc(C#N)cc4c3n2[C@H]2CCN(C)C2)no1 [Example 218, formate salt]
Q = CC1(C)CC(n2c(Cc3cc(C(F)(F)F)on3)nc3cnc4ccc(C#N)cc4c32)CCO1 (single isomer, unassigned; ent-1) [Example 176]
R = Cc1cc(Cc2nc3cnc4ccc(Cl)cc4c3n2[C@@H]2CCO[C@H](CC#N)C2)no1 (single isomer, unassigned; ent-1)
Rank entries according to their IC50, from the largest number down. # list labels per requested ordering
P, Q, R
(P: 32.2 nM, Q: 12.7 nM, R: 7.78 nM)

====

- SYSTEM: GST-tagged truncated LRRK2 (Homo sapiens, UniProt Q5S007)
- Construct: GST-tagged truncated LRRK2 from Invitrogen (Cat # PV4874); GST; purchased Invitrogen PV4874
- Sequence (Q5S007 970-2527 limits assumed): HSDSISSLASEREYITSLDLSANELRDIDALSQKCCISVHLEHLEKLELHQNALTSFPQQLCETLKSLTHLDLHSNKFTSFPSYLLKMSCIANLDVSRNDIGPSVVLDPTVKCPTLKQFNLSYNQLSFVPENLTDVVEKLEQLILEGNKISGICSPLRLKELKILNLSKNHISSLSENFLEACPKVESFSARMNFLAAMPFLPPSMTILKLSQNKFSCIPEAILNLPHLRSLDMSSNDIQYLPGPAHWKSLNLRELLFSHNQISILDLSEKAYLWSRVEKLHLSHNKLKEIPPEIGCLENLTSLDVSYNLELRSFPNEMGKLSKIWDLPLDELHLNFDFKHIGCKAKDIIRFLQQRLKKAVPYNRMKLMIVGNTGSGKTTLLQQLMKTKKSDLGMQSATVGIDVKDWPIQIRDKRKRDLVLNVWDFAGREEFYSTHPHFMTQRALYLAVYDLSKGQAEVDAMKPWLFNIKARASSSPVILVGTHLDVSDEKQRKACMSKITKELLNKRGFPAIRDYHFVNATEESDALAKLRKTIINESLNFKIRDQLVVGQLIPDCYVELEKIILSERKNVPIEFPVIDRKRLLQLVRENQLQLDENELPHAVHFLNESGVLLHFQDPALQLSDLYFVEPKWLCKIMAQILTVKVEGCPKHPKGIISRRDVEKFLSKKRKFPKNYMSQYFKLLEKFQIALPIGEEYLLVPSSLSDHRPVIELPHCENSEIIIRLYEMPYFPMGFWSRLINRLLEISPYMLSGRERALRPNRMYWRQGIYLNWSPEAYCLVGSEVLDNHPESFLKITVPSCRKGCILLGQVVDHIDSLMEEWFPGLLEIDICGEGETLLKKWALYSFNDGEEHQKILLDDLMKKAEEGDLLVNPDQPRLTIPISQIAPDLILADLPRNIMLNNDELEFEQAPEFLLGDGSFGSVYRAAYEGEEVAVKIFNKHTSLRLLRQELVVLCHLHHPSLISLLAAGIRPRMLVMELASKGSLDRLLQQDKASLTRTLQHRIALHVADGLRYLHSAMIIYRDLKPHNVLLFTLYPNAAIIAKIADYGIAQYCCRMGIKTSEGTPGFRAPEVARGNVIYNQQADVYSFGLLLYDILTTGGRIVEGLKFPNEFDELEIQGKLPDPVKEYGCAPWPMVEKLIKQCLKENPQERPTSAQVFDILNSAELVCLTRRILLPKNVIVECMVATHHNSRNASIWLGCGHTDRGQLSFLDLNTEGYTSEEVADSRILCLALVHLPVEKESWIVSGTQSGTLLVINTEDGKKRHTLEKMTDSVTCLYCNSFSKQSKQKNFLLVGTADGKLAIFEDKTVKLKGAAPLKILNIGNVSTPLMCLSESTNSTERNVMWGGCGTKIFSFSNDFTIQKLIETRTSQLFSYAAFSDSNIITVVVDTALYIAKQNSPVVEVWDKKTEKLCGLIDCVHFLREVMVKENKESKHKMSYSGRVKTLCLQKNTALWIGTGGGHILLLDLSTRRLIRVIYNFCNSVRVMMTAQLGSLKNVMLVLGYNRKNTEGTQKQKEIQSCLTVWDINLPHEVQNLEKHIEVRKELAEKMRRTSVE
- ASSAY: LRRK2 Assay, Format 1 (Lantha Screen), WT
- Format: biochemical
- DETAILS: Format 1, wild-type LRRK2; geometric mean of 2-4 determinations unless footnoted (a: ≥5 determinations; b: single determination; c: determined on trifluoroacetate salt)
Structures can show the parent of a compound that is named as a salt.
MEASURED ATTRIBUTE: IC50 (nM)

Worked examples, 4 molecules total:
MOLECULE: c1ccc2nn(Cc3nc4cnc5ccccc5c4n3C3CCOCC3)cc2c1 [Example 45]
IC50 (nM): 61.1

MOLECULE: COc1ccc(Cc2nc3cnc4ccccc4c3n2C2CCOCC2)nc1 [Example 37]
IC50 (nM): 133

MOLECULE: FC1(F)CCCCC1n1c(Cc2ccon2)nc2cnc3ccccc3c21 (stereo not drawn) [Example 46]
IC50 (nM): 186

MOLECULE: c1ccc2c(c1)ncc1nc(Cn3cc(C4CC4)nn3)n(C3CCOCC3)c12 [Example 42]
IC50 (nM): 51.2

A = Cc1nn2cc(Cc3nc4cnc5ccc(F)cc5c4n3C3CCOC(C)(C)C3)nc2s1 (stereo not drawn) [Example 83, trifluoroacetate salt]
B = Fc1ccc2ncc3nc(Cc4ccon4)n(C4CCOCC4)c3c2c1 [Example 75, trifluoroacetate salt]
C = Cc1cc(Cc2nc3cnc4ccc(Br)cc4c3n2[C@H]2CCO[C@@H](C)C2)no1 (racemic) [Example 58]
hey, can you rank those molecules up there by IC50? biggest number first please The reply should contain the labels ordered as requested.
B, A, C
(B: 130 nM, A: 25.4 nM, C: 16.8 nM)

====

- SYSTEM: mutant G2019S LRRK2 (Homo sapiens, UniProt Q5S007, G2019S)
- ASSAY: LRRK2 Assay, Format 1 (Lantha Screen), G2019S mutant
Counter-ions that a name gives are not always drawn.
MEASURED ATTRIBUTE: IC50 (nM)

// known answers, use as guide
COMPOUND: C[C@@H]1C[C@H](n2c(CC#N)nc3cnc4ccc(Cl)cc4c32)CCO1
VALUE REPORTED: 6.4

COMPOUND: C[C@H]1C[C@@H](n2c(Cc3ccon3)nc3cnc4ccc(F)cc4c32)CCO1 [enantiomer of Example 54]
VALUE REPORTED: 236

COMPOUND: O[C@@H]1CCC[C@@H](n2c(Cc3ccon3)nc3cnc4ccccc4c32)C1 (racemic)
VALUE REPORTED: 81.2

COMPOUND: F[C@H]1CC[C@@H](n2c(Cn3cncn3)nc3cnc4ccccc4c32)C1
VALUE REPORTED: 155

COMPOUND: Fc1ccc2ncc3nc(Cn4cc(C(F)(F)F)cn4)n(C4CCOCC4)c3c2c1 [Example 78, trifluoroacetate salt]
VALUE REPORTED: 115

I = C[C@H]1C[C@@H](n2c(Cc3cn4ncsc4n3)nc3cnc4ccc(F)cc4c32)CCO1 (racemic)
II = FC1(F)CCCCC1n1c(Cc2ccon2)nc2cnc3ccccc3c21 (centres unmarked)
Kindly identify the item with the lower IC50 figure among these two: I and II Use the label to indicate which entry you chose.
I

1 = Cc1nc2cnc3ccc(Br)cc3c2n1[C@H]1CC[C@@H](F)C1
2 = CC1(C)CC(n2c(Cn3cc(C4CC4)nn3)nc3cnc4ccc(F)cc4c32)CCO1 (centres unmarked) [Example 79, trifluoroacetate salt]
3 = C[C@H]1C[C@@H](n2c(Cc3cscn3)nc3cnc4ccc(Br)cc4c32)CCO1 (racemic)
4 = C[C@@H]1C[C@H](n2c(Cc3ccon3)nc3cnc4ccc(Br)cc4c32)CCO1 (single isomer, unassigned)
Rank ascending by IC50. Return the labels ranked in the requested order, please.
4, 3, 2, 1

====

- SYSTEM: mutant G2019S LRRK2 (Homo sapiens, UniProt Q5S007, G2019S)
- ASSAY: LRRK2 Assay, Format 1 (Lantha Screen), G2019S mutant
Where a name gives a salt, the structure may show the parent alone.
MEASURED ATTRIBUTE: IC50 (µM)

// worked examples, IC50 included
MOLECULE: c1ccc2c(c1)ncc1nc(Cn3cc(C4CC4)nn3)n(C3CCOCC3)c12
SYSTEM: mutant G2019S LRRK2 (Homo sapiens, UniProt Q5S007, G2019S)
IC50 (µM): 0.0559

MOLECULE: FC(F)(F)c1cnn(Cc2nc3cnc4ccccc4c3n2C2CCOCC2)c1
SYSTEM: mutant G2019S LRRK2 (Homo sapiens, UniProt Q5S007, G2019S)
IC50 (µM): 0.11

MOLECULE: CC1(C)CC(n2c(Cn3cc(C(F)(F)F)cn3)nc3cnc4ccc(F)cc4c32)CCO1 (stereo not shown) [Example 81, trifluoroacetate salt]
SYSTEM: mutant G2019S LRRK2 (Homo sapiens, UniProt Q5S007, G2019S)
IC50 (µM): 0.121

a = CC1(C)CC(n2c(Cc3ccon3)nc3cnc4ccccc4c32)CCO1 (stereo not shown)
b = Cc1cc(Cc2nc3cnc4ccccc4c3n2C2CCOCC2)no1
c = CC1(C)CC(n2c(Cc3ccon3)nc3cnc4ccc(F)cc4c32)CCO1 (stereo not shown) [Example 84, trifluoroacetate salt]
d = Cc1cn(Cc2nc3cnc4ccc(Cl)cc4c3n2[C@@H]2CCO[C@H](C)C2)nn1
e = C[C@H]1C[C@@H](n2c(Cc3ccon3)nc3cnc4ccc(C#N)cc4c32)CCO1 [enantiomer of Example 22]
Ordering: ascending IC50. Provide your answer as the labels ordered per the instruction.
d, c, a, b, e
(d: 0.0026 µM, c: 0.0249 µM, a: 0.0806 µM, b: 0.157 µM, e: 0.258 µM)
